The entries below are paired with their reported solubility.
Experiment: Solubility in CHCl3 by UV-vis absorbance calibration curve
Format: physicochemical
Conditions: CHCl3, organic solvent or mixture, thermodynamic from solid, room temperature, 50 mg/mL samples stirred overnight, 0.45 μm filtered, diluted 2000x, Beer-Lambert
Method: FIG. 2 is a concentration vs absorption plot for determining the solubility of compounds (5) and (7) in CHCl3. A calibration curve was made for each compound by plotting absorbance values of known concentrations. (Dotted lines). […] The obtained solutions were then diluted by a factor of 2000 so that their absorbance was in the range of values used for the calibration curves. […]

Sample smiles	solubility
CCCCCCn1c2cc3c(=O)n(C(CC)CC)c(=O)c4ccc5c6c(-c7cc8c(=O)n(C(CC)CC)c(=O)c9cc%10c%11c(c7c7ccc%12c(=O)n(C(CC)CC)c(=O)c%13cc(c%11c7c%12%13)n%10CCCCCC)c89)cc7c(=O)n(C(CC)CC)c(=O)c8cc1c(c6c78)c2c5c43	> 50 mg/mL
CCCCCCn1c2cc3c(=O)n(C(CC)CC)c(=O)c4ccc5c6ccc7c(=O)n(C(CC)CC)c(=O)c8cc1c(c6c78)c2c5c43	> 50 mg/mL
CCC(CC)n1c(=O)c2ccc3c4ccc5c(=O)n(C(CC)CC)c(=O)c6cc7[nH]c8cc(c1=O)c2c3c8c7c4c56	< 1 mg/mL

This collection of values is drawn from patent US9865819B2.
